// data source = patent US20250268854A1

- systemUnderTest: mouse Sortilin (Mus musculus (Mouse))
- Sequence (Q6PHU5 76-753): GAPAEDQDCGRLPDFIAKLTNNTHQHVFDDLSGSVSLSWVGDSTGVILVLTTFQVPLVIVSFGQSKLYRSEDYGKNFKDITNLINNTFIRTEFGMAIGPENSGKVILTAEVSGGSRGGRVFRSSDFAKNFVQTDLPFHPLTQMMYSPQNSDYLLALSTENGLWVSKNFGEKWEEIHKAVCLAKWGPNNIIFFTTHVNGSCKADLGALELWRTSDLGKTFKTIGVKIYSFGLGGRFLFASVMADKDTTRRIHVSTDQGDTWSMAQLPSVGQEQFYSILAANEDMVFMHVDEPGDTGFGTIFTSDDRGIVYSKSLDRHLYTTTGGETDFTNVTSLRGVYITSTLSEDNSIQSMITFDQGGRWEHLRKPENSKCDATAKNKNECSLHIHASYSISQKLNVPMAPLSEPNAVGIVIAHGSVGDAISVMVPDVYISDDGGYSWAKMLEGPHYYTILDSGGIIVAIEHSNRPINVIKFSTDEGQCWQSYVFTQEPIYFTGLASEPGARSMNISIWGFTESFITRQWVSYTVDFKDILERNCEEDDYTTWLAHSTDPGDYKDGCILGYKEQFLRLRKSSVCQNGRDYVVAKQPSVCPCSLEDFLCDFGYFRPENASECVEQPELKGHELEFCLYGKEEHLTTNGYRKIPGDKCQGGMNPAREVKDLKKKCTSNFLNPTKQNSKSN
- procedureText: Creoptix (GCI) binding kinetics, mouse Sortilin
- conditionParameters: Free acid, screened at 1 μM
propertyName: Kd (nM)
Only the number, expressed in nM, is required.

Find Kd (mouse Sortilin (Mus musculus (Mouse))) for the entry "CC(C)(C)CC[C@H](NCc1cnc2ccccc2c1)C(=O)O"
1050

---

Documented concentration at 1 h across a set of compounds
- procedureText: Blood-brain-barrier permeability of study compounds in mice after PO administration
- conditionParameters: mouse, brain, po, Brain Tissue Concentration (ng/g) T = 1 hour, T = 1 hour
Counter-ions that a name gives are not always drawn.
Respond with the bare value in ng/g.

Examples from the recorded data:
{"compound": "Cc1cccc(NC(=O)c2ccc(C(F)(F)F)cc2C(=O)O)n1 [Comparative Example 1, reference compound]", "unitsLabel": "ng/g", "concentration at 1 h": 0.9}
{"compound": "Cn1ccc2c(CN[C@@H](CCC(C)(C)C)C(=O)O)cccc21 [Example 6, hydrochloride]", "unitsLabel": "ng/g", "concentration at 1 h": 6.25}

Attention now shifts to the item below.
I would be grateful if you could share the reported concentration at 1 h for "COc1cccc(CN[C@@H](CCC(C)(C)C)C(=O)O)c1.Cl" .
48.5
